Target: BTK kinase (Homo sapiens (Human), UniProt Q06187)
Sequence (Q06187 whole entry): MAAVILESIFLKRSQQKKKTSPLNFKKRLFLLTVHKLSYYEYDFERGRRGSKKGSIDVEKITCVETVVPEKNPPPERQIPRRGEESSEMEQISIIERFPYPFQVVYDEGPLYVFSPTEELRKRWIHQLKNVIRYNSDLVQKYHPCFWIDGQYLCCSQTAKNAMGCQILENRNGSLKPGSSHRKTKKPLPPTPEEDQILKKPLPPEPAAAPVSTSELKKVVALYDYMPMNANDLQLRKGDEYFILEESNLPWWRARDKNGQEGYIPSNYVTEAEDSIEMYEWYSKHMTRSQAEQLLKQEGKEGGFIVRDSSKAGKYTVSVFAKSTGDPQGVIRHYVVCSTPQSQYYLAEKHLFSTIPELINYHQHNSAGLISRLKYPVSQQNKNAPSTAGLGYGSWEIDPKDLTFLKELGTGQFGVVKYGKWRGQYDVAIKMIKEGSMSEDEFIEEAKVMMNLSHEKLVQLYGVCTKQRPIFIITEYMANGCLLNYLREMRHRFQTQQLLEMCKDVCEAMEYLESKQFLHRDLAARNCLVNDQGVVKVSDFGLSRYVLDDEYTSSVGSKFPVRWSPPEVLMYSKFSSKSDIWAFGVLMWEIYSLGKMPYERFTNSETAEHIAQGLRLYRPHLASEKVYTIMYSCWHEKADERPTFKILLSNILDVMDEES
For each record, write down the corresponding IC50.
Just the number plus its unit, please.

Reported IC50 for Nc1nccc2c1n(-c1ccc(Oc3c(F)cccc3F)cc1)c(=O)n2[C@@H]1CCCN(C(=O)/C=C/CF)C1 [Compound 005] : what is it?
2.85 nM

Subsequent entry: COc1cccc(Oc2ccc(-n3c(=O)n([C@@H]4CCCN(C(=O)/C=C/CF)C4)c4ccnc(N)c43)cc2)c1F [Compound 004]
2.46 nM

Check Nc1nccc2c1n(-c1ccc(Oc3ccc(F)cn3)cc1)c(=O)n2[C@@H]1CCCN(C(=O)/C=C/CF)C1 [Compound 008] too.
36.5 nM

And the next one, Cc1cc(-n2c(=O)n([C@@H]3CCCN(C(=O)/C=C/CF)C3)c3ccnc(N)c32)ccc1Oc1ccccc1 [Compound 010] ?
3.04 nM

Try Nc1nccc2c1n(-c1ccc(Oc3ccc(Cl)cn3)cc1)c(=O)n2[C@@H]1CCCN(C(=O)/C=C/CF)C1 [Compound 007] next.
16 nM

Again, but for Nc1nccc2c1n(-c1ccc(Oc3ccccc3)cc1)c(=O)n2[C@@H]1CCCN(C(=O)/C=C/CF)C1 [Compound 002]
1.65 nM

###

Experiment: Pharmacokinetic evaluation of compounds in mice
Assay type: in vivo, CD-1 mice
Details: mouse, plasma; CD-1 male mice, IV, 1.0 mg/kg (002), 1.2 mg/kg (003B)
result-type: AUC(0-inf) (µM·h)
Enter your answer as a number in µM·h; do not include the unit.

Value lookup for AUC(0-inf); key = `Nc1nccc2c1n(-c1ccc(Oc3ccccc3)cc1)c(=O)n2[C@@H]1CCCN(C(=O)/C=C/CF)C1`
0.697

###

Test: Pharmacokinetic evaluation of compounds in rats
Format: in vivo
Conditions: rat, plasma; SD rats, PO, 9.2 mg/kg (002), 8.4 mg/kg (003B)
result-type: Tmax (min)
State the answer as a number, implicitly in min.

Fill blank: measured Tmax of the compound `Nc1nccc2c1n(-c1ccc(Oc3ccccc3)cc1)c(=O)n2[C@@H]1CCCN(C(=O)/C=C/CF)C1` is ____.
22.8

###

Test: Pharmacokinetic evaluation of compounds in mice
Format: in vivo, CD-1 mice
Conditions: mouse, plasma; CD-1 male mice, IV, 1.0 mg/kg (002), 1.2 mg/kg (003B)
Procedure: Experimental purpose: To test the in vivo pharmacokinetic data of compounds in CD-1 mice. The compound was mixed with the solvent 5% DMSO/5% Solutol/90% H2O, vortexed and sonicated to prepare a 0.5 mg/mL clear solution. CD-1 male mice aged 7 to 10 weeks were selected, and administered the candidate compound solution intravenously. […] The drug concentration was analyzed by LC-MS/MS method, and pharmacokinetic parameters were calculated by Phoenix WinNonlin software (Pharsight Company, USA). […]
result-type: C0 (µM)
Record the value in µM, omitting the unit from your answer.

Would you kindly share the measured C0 for `Nc1nccc2c1n(-c1ccc(Oc3ccccc3)cc1)c(=O)n2[C@@H]1CCCN(C(=O)/C=C/CF)C1` ?
4.19

###

Experiment: Pharmacokinetic evaluation of compounds in mice
Format: in vivo, CD-1 mice
Details: mouse, plasma; CD-1 male mice, IV, 1.0 mg/kg (002), 1.2 mg/kg (003B)
Description: Experimental purpose: To test the in vivo pharmacokinetic data of compounds in CD-1 mice. The compound was mixed with the solvent 5% DMSO/5% Solutol/90% H2O, vortexed and sonicated to prepare a 0.5 mg/mL clear solution. CD-1 male mice aged 7 to 10 weeks were selected, and administered the candidate compound solution intravenously. […] The drug concentration was analyzed by LC-MS/MS method, and pharmacokinetic parameters were calculated by Phoenix WinNonlin software (Pharsight Company, USA). […]
result-type: Vd (L/kg)
Just the number in L/kg, nothing appended.

If you can, please state the reported Vd value of `Nc1nccc2c1n(-c1ccc(Oc3ccccc3)cc1)c(=O)n2[C@@H]1CCCN(C(=O)/C=C/CF)C1` .
0.76

###

Assay: Pharmacokinetic evaluation of compounds in mice
Type: in vivo, CD-1 mice
Settings: mouse, plasma; CD-1 male mice, PO, 2.9 mg/kg (002), 2.85 mg/kg (003B)
result-type: Cmax (nM)
Number only, in nM; omit the unit.

GET /values?readout=Cmax&item= `Nc1nccc2c1n(-c1ccc(Oc3ccccc3)cc1)c(=O)n2[C@@H]1CCCN(C(=O)/C=C/CF)C1`
1190

###

Experiment: Pharmacokinetic evaluation of compounds in rats
Assay type: in vivo
Details: rat, plasma; SD rats, PO, 9.2 mg/kg (002), 8.4 mg/kg (003B)
result-type: AUC(0-inf) (µM·h)
Give the value, in units of µM·h, as a plain number.

Which AUC(0-inf) value belongs to Nc1nccc2c1n(-c1ccc(Oc3ccccc3)cc1)c(=O)n2[C@@H]1CCCN(C(=O)/C=C/CF)C1 [Compound 002] ?
2.58

###

Experiment: Hepatocyte metabolic stability experiment (HMS), R
Type: in vitro ADME
Settings: rat, R hepatocytes, read-out: HMS CLint(liver)
result-type: CLint scaled at 1 μM (mL/min/kg)
Number only, in mL/min/kg; omit the unit.

Please look up its CLint scaled at 1 μM: Nc1nccc2c1n(-c1ccc(Oc3ccccc3)cc1)c(=O)n2[C@@H]1CCCN(C(=O)/C=C/CF)C1 [Compound 002]
171

###

Test: Hepatocyte metabolic stability experiment (HMS), C
Assay type: in vitro ADME
Conditions: cynomolgus monkey, C hepatocytes, read-out: HMS CLint(liver)
result-type: CLint scaled at 1 μM (mL/min/kg)
Give just the number in mL/min/kg; leave the unit off.

Would you kindly share the measured CLint scaled at 1 μM for Nc1nccc2c1n(-c1ccc(Oc3ccccc3)cc1)c(=O)n2[C@@H]1CCCN(C(=O)/C=C/CF)C1 [Compound 002] ?
203

###

Experiment: Pharmacokinetic evaluation of compounds in dogs
Assay type: in vivo
Conditions: dog, plasma; beagle dogs, IV, 0.49 mg/kg (002), 0.5 mg/kg (003B)
result-type: clearance

Recorded clearance for `Nc1nccc2c1n(-c1ccc(Oc3ccccc3)cc1)c(=O)n2[C@@H]1CCCN(C(=O)/C=C/CF)C1` , please?
25.6 mL/min/kg

###

Assay: Pharmacokinetic evaluation of compounds in rats
Type: in vivo
Conditions: rat, plasma; SD rats, PO, 9.2 mg/kg (002), 8.4 mg/kg (003B)
result-type: bioavailability (%)
Kindly answer with a numeric value in %, unit omitted.

What does the data say about its bioavailability? Entry: `Nc1nccc2c1n(-c1ccc(Oc3ccccc3)cc1)c(=O)n2[C@@H]1CCCN(C(=O)/C=C/CF)C1`
18.1

###

Test: Hepatocyte metabolic stability experiment (HMS), H
Assay type: in vitro ADME
Details: human, H hepatocytes, read-out: HMS CLint(liver)
result-type: CLint scaled at 1 μM (mL/min/kg)
Only the number, expressed in mL/min/kg, is required.

Could you share which CLint scaled at 1 μM value was measured for `Nc1nccc2c1n(-c1ccc(Oc3ccccc3)cc1)c(=O)n2[C@@H]1CCCN(C(=O)/C=C/CF)C1` ?
130

###

Experiment: Pharmacokinetic evaluation of compounds in dogs
Type: in vivo
Details: dog, plasma; beagle dogs, IV, 0.49 mg/kg (002), 0.5 mg/kg (003B)
result-type: AUC(0-inf) (µM·h)
Give the number; µM·h is assumed, so skip it.

For the molecule `Nc1nccc2c1n(-c1ccc(Oc3ccccc3)cc1)c(=O)n2[C@@H]1CCCN(C(=O)/C=C/CF)C1` , what AUC(0-inf) is on record?
0.684

###

Assay: Pharmacokinetic evaluation of compounds in mice
Assay type: in vivo, CD-1 mice
Settings: mouse, plasma; CD-1 male mice, PO, 2.9 mg/kg (002), 2.85 mg/kg (003B)
result-type: AUC(0-inf) (µM·h)
Kindly answer with a numeric value in µM·h, unit omitted.

Value lookup for AUC(0-inf); key = Nc1nccc2c1n(-c1ccc(Oc3ccccc3)cc1)c(=O)n2[C@@H]1CCCN(C(=O)/C=C/CF)C1 [Compound 002]
0.83

###

Assay: Pharmacokinetic evaluation of compounds in dogs
Type: in vivo
Details: dog, plasma; beagle dogs, PO, 2.0 mg/kg
result-type: Cmax (nM)
Number in nM, nothing else.

I am curious: what Cmax value has been reported for `Nc1nccc2c1n(-c1ccc(Oc3ccccc3)cc1)c(=O)n2[C@@H]1CCCN(C(=O)/C=C/CF)C1` ?
1140

###

Assay: Pharmacokinetic evaluation of compounds in rats
Type: in vivo
Conditions: rat, plasma; SD rats, IV, 1.0 mg/kg (002), 0.85 mg/kg (003B)
result-type: C0 (µM)
Only the number, expressed in µM, is required.

Fill in the blank: the reported C0 of `Nc1nccc2c1n(-c1ccc(Oc3ccccc3)cc1)c(=O)n2[C@@H]1CCCN(C(=O)/C=C/CF)C1` is ____.
3.52

###

Assay: Pharmacokinetic evaluation of compounds in rats
Type: in vivo
Details: rat, plasma; SD rats, PO, 9.2 mg/kg (002), 8.4 mg/kg (003B)
result-type: half-life (h)
Number only, in h; omit the unit.

Given the compound Nc1nccc2c1n(-c1ccc(Oc3ccccc3)cc1)c(=O)n2[C@@H]1CCCN(C(=O)/C=C/CF)C1 [Compound 002] , what is its reported half-life?
1.79
